biological target: FGFR1 in recombinant human FGFR1/FGF2 complex (Homo sapiens, UniProt P11362); construct: made in house; host or cells: Escherichia coli BL21 (DE3) Star; assay: Thermal shift assay (TSA), ΔTm of FGFR1 peak; type: binding; conditions: 100 μM compound; read-out: ΔTm (° C.) −FGFR1
Sequence (P11362 142-365 limits assumed): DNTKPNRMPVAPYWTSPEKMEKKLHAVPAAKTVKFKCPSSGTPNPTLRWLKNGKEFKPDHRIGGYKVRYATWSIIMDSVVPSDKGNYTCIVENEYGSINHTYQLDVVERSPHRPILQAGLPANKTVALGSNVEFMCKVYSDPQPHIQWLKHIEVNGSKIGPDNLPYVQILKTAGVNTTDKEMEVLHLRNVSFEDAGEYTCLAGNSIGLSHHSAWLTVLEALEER
Sequence (P09038 156-288 partner limits assumed): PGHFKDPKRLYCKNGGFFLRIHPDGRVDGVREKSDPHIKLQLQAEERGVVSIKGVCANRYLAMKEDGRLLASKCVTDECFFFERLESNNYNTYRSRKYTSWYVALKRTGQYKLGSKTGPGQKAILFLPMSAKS
Would you kindly list ΔTm at 100 µM for each of these molecules?

>>> observed("O=Cc1ccc(F)cc1")
"0 °C"
>>> observed("CCN(CC)c1ccc(C(=O)O)cc1")
"2.5 °C"
>>> observed("CCN(CC)c1ccc(/C=N/N2CCN(C(c3ccccc3)c3ccccc3)CC2)cc1 [Compound 15oa]")
"2 °C"

Now let's try a different one.
Challenge: // ΔTm at 100 µM lookup, key: `O=Cc1ccccc1F`
Response given: 0 °C
